# Study System: GST-Ap-NF-kB RHD (Exaiptasia pallida (Aiptasia), UniProt A0A913YAJ5 2-422)
# Sequence: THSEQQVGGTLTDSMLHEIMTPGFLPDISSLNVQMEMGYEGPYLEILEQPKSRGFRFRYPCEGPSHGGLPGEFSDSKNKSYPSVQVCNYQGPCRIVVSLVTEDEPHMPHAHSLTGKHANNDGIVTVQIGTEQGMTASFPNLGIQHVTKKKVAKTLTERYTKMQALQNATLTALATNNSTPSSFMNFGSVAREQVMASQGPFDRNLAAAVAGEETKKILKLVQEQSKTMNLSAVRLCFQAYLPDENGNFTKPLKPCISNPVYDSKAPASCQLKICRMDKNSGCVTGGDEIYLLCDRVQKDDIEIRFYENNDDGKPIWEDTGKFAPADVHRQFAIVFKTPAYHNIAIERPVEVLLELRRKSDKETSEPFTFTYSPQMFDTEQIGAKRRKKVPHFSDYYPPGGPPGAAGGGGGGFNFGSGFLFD
# Protocol Summary: protein-binding microarray (PBM); PBM: ~300 nM protein, 6 mM HEPES pH 7.8, 80 mM KCl, 0.5 mM EDTA, 0.5 mM EGTA, 6% glycerol, 35 ng/ul poly-dIdC, 1% milk, 1 h, room temperature; Ap Aiptasia and Nv Nematostella (sea anemones) / Co Capsaspora / Aq Amphimedon (sponge) / Dm Drosophila / Hu human; RHD is the Rel homology domain; high values mean tight binding
# Particulars: dsDNA, one strand shown
Measure: binding signal
Record the result as a number with its unit.

Sample answers from the record:
CCGATTAACATCAGGGCCCCCCCTGATGTTAATCGGGTCTTGATTCGCTTGACGCTGCTG 6.57 z-score
CCGATTAACATCAAAATAACCCCTGATGTTAATCGGGTCTTGATTCGCTTGACGCTGCTG 6.69 z-score
CCGATTAACATCAGGAAGATCCCTGATGTTAATCGGGTCTTGATTCGCTTGACGCTGCTG 3.43 z-score
CCGATTAACATCAGGGGGGGTCATGATGTTAATCGGGTCTTGATTCGCTTGACGCTGCTG 3.99 z-score
CCGATTAACATCAGATTTTCCCATGATGTTAATCGGGTCTTGATTCGCTTGACGCTGCTG 3.85 z-score

The value of binding signal measured for the sequence CCGATTAACATCACAATTTTCCCTGATGTTAATCGGGTCTTGATTCGCTTGACGCTGCTG turned out to be 4.54 z-score

The reported value for CCGATTAACATCAAAAAAATCCCTGATGTTAATCGGGTCTTGATTCGCTTGACGCTGCTG in terms of binding signal is 6.44 z-score

binding signal in this record for CCGATTAACATCATGGTGGGAAATGATGTTAATCGGGTCTTGATTCGCTTGACGCTGCTG : 1.25 z-score

Input CCGATTAACATCAGGAAAAGCCCTGATGTTAATCGGGTCTTGATTCGCTTGACGCTGCTG . Output binding signal: 2.12 z-score

Origin of values: paper PMC5700166
